molecular target: human CD40 on cells (HEK293 stable transfectants, HEK-Blue CD40 cells, human B cells, monocytic cells, … (human, UniProt P25942 21-277)); experiment: cell-based or functional assay
Sequence (P25942 21-277 limits assumed): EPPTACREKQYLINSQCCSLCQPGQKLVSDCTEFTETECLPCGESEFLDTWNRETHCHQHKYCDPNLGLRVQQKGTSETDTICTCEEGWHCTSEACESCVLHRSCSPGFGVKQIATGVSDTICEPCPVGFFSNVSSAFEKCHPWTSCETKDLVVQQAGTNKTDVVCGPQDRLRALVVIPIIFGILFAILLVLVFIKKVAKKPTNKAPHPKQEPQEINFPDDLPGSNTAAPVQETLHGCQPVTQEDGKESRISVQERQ
quantity: Maximal activation (OD655)
Give bare numbers, in OD655.

Examples with their reported Maximal activation (OD655) follow.
binder: huAb6-2 (antibody, human IgG1, V domains shown, human IgG1, kappa) VH: EVQLVQSGAEVKKPGSSVKVSCKASGYTFTSYWMHWVRQAPGQGLEWIGNIDPSNGETHYNQKFKDRVTITVDKSTSTAYMELSSLRSEDTAVYYCARERIYYSGSTYDGYFDVWGQGTTVTVSS VL: DIQLTQSPSFLSASVGDRVTITCSASSSLSYMHWYQQKPGKSPKRWIYDTSKLASGVPSRFSGSGSGTEYTLTISSLQPEDFATYYCQQWSSNPWTFGGGTKVEIK
quantity: Maximal activation (OD655)
unit.string: OD655
measured.number: 0.2
//
binder: huAb9-4 (antibody, human IgG1, V domains shown, human IgG1, kappa) VH: EVQLQESGPGLVKPSETLSLTCTVSGYSITSNYYWNWIRQPPGKGLEWMGYIRYDGSNNYNPSLKNRITISRDTSKNQFSLKLSSVTAADTAVYYCARLDYWGQGTTVTVSS VL: DAVMTQTPLSLSVTPGQPASISCRSSQSLENTNGNTFLNWYLQKPGQSPQLLIYRVSNRFSGVPDRFSGSGSGTDFTLKISRVEAEDVGVYYCLQVTHVPFTFGQGTKLEIK
quantity: Maximal activation (OD655)
unit.string: OD655
measured.number: 0.61

Next:
[ask] Which Maximal activation (OD655) reading was recorded for the binder huAb6-1 (antibody, human IgG1, V domains shown, human IgG1 heavy chain constant region, kappa light chain constant region) VH: EVQLVQSGAEVKKPGSSVKVSCKASGYTFTSYWMHWVRQAPGQGLEWIGNIDPSNGETHYNQKFKDRATLTVDKSTSTAYMELSSLRSEDTAVYYCARERIYYSGSTYDGYFDVWGQGTTVTVSS VL: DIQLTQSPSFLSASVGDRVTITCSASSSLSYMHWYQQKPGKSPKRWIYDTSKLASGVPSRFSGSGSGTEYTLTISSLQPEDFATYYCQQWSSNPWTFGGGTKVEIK ?
[reply] 0.26
